Sourced from patent US10786508B2

Target: glucocerebrosidase (Gcase) (Homo sapiens)
Construct: micellar solution containing 10 nM GCase and 100 nM saposin C
Sequence (P04062 40-536): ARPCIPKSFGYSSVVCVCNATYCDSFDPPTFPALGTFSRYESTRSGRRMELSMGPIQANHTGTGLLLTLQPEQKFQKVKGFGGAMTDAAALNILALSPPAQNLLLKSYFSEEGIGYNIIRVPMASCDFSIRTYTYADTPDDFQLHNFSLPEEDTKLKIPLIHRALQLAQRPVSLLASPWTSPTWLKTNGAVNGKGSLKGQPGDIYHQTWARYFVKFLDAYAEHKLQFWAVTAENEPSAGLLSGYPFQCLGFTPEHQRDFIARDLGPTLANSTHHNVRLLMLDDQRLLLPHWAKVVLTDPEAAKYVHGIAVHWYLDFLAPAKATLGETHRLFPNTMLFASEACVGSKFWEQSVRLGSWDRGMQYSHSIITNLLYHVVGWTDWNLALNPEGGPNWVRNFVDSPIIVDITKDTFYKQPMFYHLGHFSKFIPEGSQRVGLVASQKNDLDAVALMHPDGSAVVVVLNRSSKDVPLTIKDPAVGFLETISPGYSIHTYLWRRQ
Test: Glucocerebrosidase (Gcase) activation assay, 4-methylumbelliferyl-beta-D-glucopyranoside substrate, with saposin C
Assay type: biochemical
Settings: 0.1 μM test compound; 10 nM GCase, 100 nM saposin C, pH 4.7; read-out: Percent Gease Activation 0.1 μM Test Compound
Property Measured: activation at 0.1 µM

Reference set, count: 4
C#Cc1ccc(NC(=O)c2ncn3c(C)cc(C)nc23)cc1    10 to 20%
Cc1cc(C)n2cnc(C(=O)Nc3ccc(-c4cscn4)cc3)c2n1    < 10%
Cc1cc(C)n2cnc(C(=O)N[C@@H](C)c3ccccc3F)c2n1    < 10%
CCCCO[C@H]1C[C@H]2CC[C@@H](C1)[C@H]2NC(=O)c1ncn2c(C)cc(C)nc12    > 20%

With glucocerebrosidase (Gcase) (Homo sapiens) as the test system, Cc1cc(C)n2cnc(C(=O)NC3Cc4ccccc4C3)c2n1 showed activation at 0.1 µM of < 10%
